Measured TGI, listed per entry for reference.
experiment: Cytotoxicity against human 184B5 cells after 72 hrs by MTT assay; assay type: cell-based; details: 184b5, 72 h
Could you give me the number in µM? Just the number is fine.

Asked: Fill in: TGI of [SeH]c1nc([SeH])c2ccccc2n1 is ___
Given back: 2.5

Asked: Which value of TGI has been reported for COc1ccc(CNc2nc(SC)nc3ncccc23)cc1 in the records?
Given back: 69.77

***
Asked: Endpoint output: TGI of [SeH]c1nc(NCc2ccccc2)c2ccccc2n1 . Value?
Given back: 63.63

Asked: For the compound CCCCC[Se]c1nc(N)c2cccnc2n1 , what TGI is on record?
Given back: 40.23
